PROTOCOL_DETAILS: Water solubility / feasibility of intravenous administration
READOUT_KIND: solubility in water (intravenous administration at oral equivalent doses)

Enquiry: Consider the compound shown here: COc1ccc(C(=O)OC2=CC[C@H]3[C@H]4Cc5ccc(OC)c6c5[C@@]3(CCN4C)C2O6)cc1 (stereo partly drawn) What is its recorded solubility in water (intravenous administration at oral equivalent doses)?
Return: hydrophobic

Enquiry: Requested field: solubility in water (intravenous administration at oral equivalent doses). Item: COc1ccc2c3c1OC1C(OC(=O)CCCCC(=O)O)=CC[C@H]4[C@@H](C2)N(C)CC[C@]314 (stereo partly drawn) [Adipate-HC]
Return: water soluble

Enquiry: Value lookup for solubility in water (intravenous administration at oral equivalent doses); key = COc1ccc2c3c1OC1C(OC(=O)c4ccc5c(c4)OCO5)=CC[C@H]4[C@@H](C2)N(C)CC[C@]314 (stereo partly drawn) [Piperonylate-HC]
Return: hydrophobic

Enquiry: For the compound shown here, COc1ccc2c3c1OC1C(OC(=O)COCC(=O)O)=CC[C@H]4[C@@H](C2)N(C)CC[C@]314 (stereo partly drawn) [Diglycolate-HC, reference compound] , give the reported solubility in water (intravenous administration at oral equivalent doses).
Return: water soluble

Enquiry: Which solubility in water (intravenous administration at oral equivalent doses) is reported for this compound? COc1ccc(C(=O)OC2=CC[C@H]3[C@H]4Cc5ccc(OC)c6c5[C@@]3(CCN4C)C2O6)cc1O (stereo partly drawn)
Return: hydrophobic

New cases:
Enquiry: Please give the measured solubility in water (intravenous administration at oral equivalent doses) for this compound: COc1ccc2c3c1OC1C(OC(=O)c4ccccc4)=CCC4C(C2)N(C)CCC314 (stereo not drawn) [Bz-HC, benzhydrocodone]
Return: hydrophobic
